assay: qHTS assay to identify small molecule antagonists of the sonic hedgehog signaling (Shh) pathway (AID 1259369); conditions: NIH/3T3 Gli1-Luc reporter, Shh antagonist, luminescence 24 h; series mostly up to 92.4 µM; also: nearly all actives have a fitted effect of over 45% in size
Results filed as inconclusive are left out. Calls of active or inactive are those of the source. Calls follow the shape of the full dose curve.
Answer with one of the outcomes t (active), f (inactive)

Completed entries (count: 4):
COc1ccnc(CS(=O)c2nc3ccc(OC(F)F)cc3[nH]2)c1OC (configuration not stated) : f
O=C1CCCCCCCCCCCC(=O)OCCO1 : f
CCCCC(CC)COC(=O)CCCCCCCCC(=O)OCC(CC)CCCC (configuration not stated) : f
CCCCCCCCCCCCCCCCCCOS(=O)(=O)O : f

Q: Hi, do you know how CCOc1ccc(N)c([N+](=O)[O-])c1 came out in this test?
Ans: f

Q: How did this test come out for CC(C)(C)Cl ?
Ans: f

Q: What call does the record list for CNCCCCOc1ccccc1Cc1ccccc1 ?
Ans: t

----------
assay: Caspase-3/7 induction in CHO-K1 cells by small molecules, qHTS assay (AID 1346980); details: CHO-K1 caspase-3/7 induction, Caspase-Glo luminescence, 17 h; series mostly up to 92.4 µM; also: nearly all actives have a fitted effect of over 15% in size
The source made the active and inactive calls. Calls come from the whole dose curve; as a rule, active = well fitted activation curve with a large enough effect in the repeat runs; inconclusive = weak or mixed curves; inactive = flat fitted curve, though single readings scatter.
value_kind: caspase-3/7 activation

O=C1CCC(=O)O1 : inactive
CCCOC(C(=O)OC1CCN(C)CC1)(c1ccccc1)c1ccccc1 : inactive
NCc1ccccc1Sc1ccccc1CO : inactive
CCC(C)(C)CC : inactive
CC1=CCCC(C)(C)C12CCC(C)O2 (stereo unspecified) : inactive

Q: Query (compound): CC1(c2ccccc2)OC(C(=O)O)=CC1=O (stereo unspecified) ; field requested: caspase-3/7 activation
Ans: inactive

Q: Need caspase-3/7 activation, item CCCCCCCC/C=C\CCCCCCCC(=O)OCC
Ans: inactive

Q: For the compound shown here, COc1ccc(C(=O)c2ccc(OC)cc2O)c(O)c1 , give the reported caspase-3/7 activation.
Ans: inactive

Q: Fill blank: measured caspase-3/7 activation of the compound CCn1cc(C(=O)O)c(=O)c2cnc(N3CCNCC3)nc21 is ____.
Ans: inactive

Q: # input compound: Cc1cccc(C)c1OCC(=O)N[C@@H](Cc1ccccc1)[C@@H](O)C[C@H](Cc1ccccc1)NC(=O)[C@H](C(C)C)N1CCCNC1=O ; wanted: its caspase-3/7 activation
Ans: inactive

Q: Reported caspase-3/7 activation, compound c1ccc(CNCCNCc2ccccc2)cc1 : ____
Ans: inactive

Q: Field request: caspase-3/7 activation | item: CCCCCCCCCOS(=O)(=O)O
Ans: inactive

----------
experiment: Caspase-3/7 induction in CHO-K1 cells by small molecules, qHTS assay (AID 1346980); settings: CHO-K1 caspase-3/7 induction, Caspase-Glo luminescence, 17 h; series mostly up to 92.4 µM; also: nearly all actives have a fitted effect of over 15% in size
Calls of active or inactive are those of the source. Calls come from the whole dose curve; as a rule, active = well fitted activation curve with a large enough effect in the repeat runs; inconclusive = weak or mixed curves; inactive = flat fitted curve, though single readings scatter.
value_kind: caspase-3/7 activation

c1ccc(C(O[C@H]2CCCN(CCc3ccc4c(c3)OCO4)C2)c2ccccc2)cc1 : inactive
Nc1ccccc1S(=O)(=O)c1ccccc1 : inactive
CCN(CC)c1ccc2c(-c3ccccc3C(=O)O)c3ccc(=[N+](CC)CC)cc-3oc2c1 : inactive
CCO[Si](CCCCl)(OCC)OCC : inactive
CC(=O)c1cccc([N+](=O)[O-])c1 : inactive
C[Si](C)(CCCN)O[Si](C)(C)CCCN : inactive
CCCCc1ncc(/C=C(\Cc2cccs2)C(=O)O)n1Cc1ccc(C(=O)O)cc1 : inactive
CCOCC(O)COc1ccc(NC(=O)CC[S+](C)C)cc1 (stereo unspecified) : inactive

Q: I have this compound here, CCC(C)O (stereo unspecified) , and I need its recorded caspase-3/7 activation.
Ans: inactive

Q: Item under review: O=C(O)c1nc(Cl)c(Cl)c(Cl)c1Cl . Reported caspase-3/7 activation?
Ans: inactive

Q: Query (compound): CO[C@@H]1[C@H](OC(=O)/C=C/C=C/C=C/C=C/C(=O)O)CC[C@]2(CO2)[C@H]1[C@@]1(C)O[C@@H]1CC=C(C)C ; field requested: caspase-3/7 activation
Ans: inactive
